The compounds listed here are annotated with their Papp.
Assay: in vitro
Settings: human, Caco-2, Caco-2 (cm/sec)
*1 amine or outer side, *2 acyl side, *3 side chain or, on linkers, in order; H or OH if unused. Where a SMILES comes first, the peptide text is derived from it. Bridges are numbered along the chain shown (N, C = ends). [ ]: non-standard residue; d: D form. The star is where a group is joined. Phe(3-CONHMe,4-OMe) = CNC(=O)c1cc(C[C@H](N)C(=O)O)ccc1OC; Phe(4-COOH) = N[C@@H](Cc1ccc(C(=O)O)cc1)C(=O)O; NMePhe(3-Cl) = CN[C@@H](Cc1cccc(Cl)c1)C(=O)O; Hyp = O=C(O)[C@@H]1C[C@@H](O)CN1; NMeF = CN[C@@H](Cc1ccccc1)C(=O)O; NMeGABA = CN(CCCC(=O)[*:2])[*:1]; NMeI = CC[C@H](C)[C@H](NC)C(=O)O; NMeL = CN[C@@H](CC(C)C)C(=O)O; Butyl(3R-OH) = C[C@@H](O)CC*; Propyl(2R-OH) = C[C@@H](O)C*; NMeV = CN[C@H](C(=O)O)C(C)C; Piperidide = C1CCN(*)CC1; NBuGly = CCCCNCC(=O)O; Ethyl(2-OH) = OCC*; N(OH)Me = CN(O)*; tBu = CC(C)(C)*
Write down the numeric answer in ×10⁻⁶ cm/s and omit the unit.

Some compounds with recorded Papp:
Compound	Endpoint result
CC(C)C[C@H]1C(=O)N[C@@H](COCC[C@@H](C)O)C(=O)N(C)[C@@H](Cc2ccccc2)C(=O)N(C)[C@@H](Cc2cccc(Cl)c2)C(=O)N[C@@H](COC(C)(C)C)C(=O)N(C)[C@@H](CC(C)C)C(=O)N[C@@H]([C@@H](C)O)C(=O)N(C)[C@@H](CC(C)C)C(=O)N(C)[C@@H](CC(C)C)C(=O)N[C@H](C(=O)N2CCCCC2)CC(=O)N(C)CCCC(=O)N1C [AP115] ([NMeGABA][NMeL]S(Butyl(3R-OH))[NMeF][NMePhe(3-Cl)]S(tBu)[NMeL]T[NMeL][NMeL]D-Piperidide; lactam N-11)	0.27
CC(C)C[C@@H]1NC(=O)[C@H](CC(C)C)N(C)C(=O)[C@H](CC(C)C)N(C)C(=O)[C@H](COC(C)(C)C)NC(=O)[C@H](CC(C)C)N(C)C(=O)[C@@H](C(C)C)NC(=O)C[C@@H](C(=O)N2CCCCC2)NC(=O)[C@H](CC(C)C)N(C)C(=O)[C@H](Cc2ccccc2)NC(=O)[C@@H]2C[C@@H](OCCO)CN2C(=O)[C@H]([C@@H](C)O)NC1=O [AP237] ([dV][NMeL]S(tBu)[NMeL][NMeL]LT[Hyp](Ethyl(2-OH))F[NMeL]D-Piperidide; lactam N-11)	1.3

Recorded Papp (compound CC(C)C[C@H]1C(=O)N[C@@H](C(C)C)C(=O)N(C)[C@@H](Cc2ccccc2)C(=O)N(C)[C@@H](Cc2ccccc2)C(=O)N[C@@H](COC(C)(C)C)C(=O)N(C)[C@@H](CC(C)C)C(=O)N[C@@H](COC[C@@H](C)O)C(=O)N(C)[C@@H](CC(C)C)C(=O)N(C)[C@@H](CC(C)C)C(=O)N[C@H](C(=O)N2CCCCC2)CC(=O)N(C)CCCC(=O)N1C [AP83] ([NMeGABA][NMeL]V[NMeF][NMeF]S(tBu)[NMeL]S(Propyl(2R-OH))[NMeL][NMeL]D-Piperidide; lactam N-11) ): 1.3

Entry under test: CCCCN1CC(=O)N(C)[C@@H](CC(C)C)C(=O)N[C@@H](COC(C)(C)C)C(=O)N(C)[C@@H]([C@@H](C)CC)C(=O)N(C)[C@@H](CC(C)C)C(=O)N[C@H](C(=O)N2CCCCC2)CC(=O)N[C@H](C)C(=O)N(C)[C@@H](Cc2ccccc2)C(=O)N[C@@H](Cc2ccc(C(=O)N(C)O)cc2)C(=O)N(C)[C@@H](CC(C)C)C(=O)N[C@@H]([C@@H](C)O)C1=O [AP250] ([dA][NMeF][Phe(4-COOH)](N(OH)Me)[NMeL]T[NBuGly][NMeL]S(tBu)[NMeI][NMeL]D-Piperidide; lactam N-11) . Its Papp was 0.12

Papp reading for CCCCN1CC(=O)N(C)[C@@H](CC(C)C)C(=O)N[C@@H](COC(C)(C)C)C(=O)N(C)[C@@H](Cc2ccccc2)C(=O)N(C)[C@@H](CC(C)C)C(=O)N[C@H](C(=O)N2CCCCC2)CC(=O)N[C@H](C(C)C)C(=O)N(C)[C@@H](C(C)C)C(=O)N[C@@H](Cc2ccc(OC)c(C(=O)NC)c2)C(=O)N(C)[C@@H](CC(C)C)C(=O)N[C@@H]([C@@H](C)O)C1=O [AP35] ([dV][NMeV][Phe(3-CONHMe,4-OMe)][NMeL]T[NBuGly][NMeL]S(tBu)[NMeF][NMeL]D-Piperidide; lactam N-11) : 2
